UniProt:P50281 measurements of IC50, listed per entry.
reported-property: IC50 (nM)

chemical_string=COc1ccc(COc2ccc(OC3CCN(S(=O)(=O)C[C@@]4(C)NC(=O)NC4=O)CC3)cc2)cc1 reading=1080
chemical_string=C[C@]1(CS(=O)(=O)N2CCC(Oc3ccc(OCC(F)(F)C(F)F)cc3)CC2)NC(=O)NC1=O reading=553
chemical_string=C[C@]1(CS(=O)(=O)N2CCC(Oc3ccc(OCC(F)(F)F)cc3)CC2)NC(=O)NC1=O reading=1950
chemical_string=C[C@]1(CS(=O)(=O)N2CCC(Oc3ccc(OC(F)(F)F)cc3)CC2)NC(=O)NC1=O reading=9500
chemical_string=C[C@]1(CS(=O)(=O)N2CCC(Oc3ccc(OCc4cscn4)cc3)CC2)NC(=O)NC1=O reading=4090
chemical_string=C[C@]1(CS(=O)(=O)N2CCC(Oc3ccc(OC(F)(F)C(F)F)cc3)CC2)NC(=O)NC1=O reading=2220

====

Entries and their measured solubility thermodynamic at 24 h follow.
- assay-overview: Thermodynamic solubility of the compound in phosphate buffer at pH 7.4 at 25 degC after 24 hrs
- protocol-conditions: read-out: Therm_solubility
reported-property: solubility thermodynamic at 24 h (µM)

chemical_string=C[C@]1(CS(=O)(=O)N2CCC(Oc3ccc(OCc4cccc(C#N)c4)cc3)CC2)NC(=O)NC1=O reported_property="solubility thermodynamic at 24 h" readout_qualifier== reading=4.4
chemical_string=C[C@]1(CS(=O)(=O)N2CCN(c3ncc(OCc4cnc(C#N)s4)cn3)CC2)NC(=O)NC1=O reported_property="solubility thermodynamic at 24 h" readout_qualifier== reading=14
chemical_string=COc1ccc(COc2ccc(OC3CCN(S(=O)(=O)C[C@@]4(C)NC(=O)NC4=O)CC3)cc2)cc1 reported_property="solubility thermodynamic at 24 h" readout_qualifier== reading=1.2
chemical_string=C[C@]1(CS(=O)(=O)N2CCN(c3ncc(OCc4cc(C(F)(F)F)no4)cn3)CC2)NC(=O)NC1=O reported_property="solubility thermodynamic at 24 h" readout_qualifier== reading=3.1
chemical_string=C[C@]1(CS(=O)(=O)N2CCC(Oc3ccc(OCc4ccc(C#N)cc4)cc3)CC2)NC(=O)NC1=O reported_property="solubility thermodynamic at 24 h" readout_qualifier== reading=1.8
chemical_string=C[C@]1(CS(=O)(=O)N2CCC(Oc3ccc(C(F)(F)F)cc3)CC2)NC(=O)NC1=O reported_property="solubility thermodynamic at 24 h" readout_qualifier== reading=23
chemical_string=C[C@]1(CS(=O)(=O)N2CCC(Oc3ccc(OCC(F)(F)C(F)F)cc3)CC2)NC(=O)NC1=O reported_property="solubility thermodynamic at 24 h" readout_qualifier== reading=32
chemical_string=C[C@]1(CS(=O)(=O)N2CCC(Oc3ccc(OCC(F)(F)C(F)(F)F)cc3)CC2)NC(=O)NC1=O reported_property="solubility thermodynamic at 24 h" readout_qualifier== reading=4.4
chemical_string=C[C@]1(CS(=O)(=O)N2CCC(Oc3ccc(OCCC(F)(F)F)cc3)CC2)NC(=O)NC1=O reported_property="solubility thermodynamic at 24 h" readout_qualifier== reading=110
chemical_string=Cc1cc(COc2cnc(N3CCN(S(=O)(=O)C[C@@]4(C)NC(=O)NC4=O)CC3)nc2)on1 reported_property="solubility thermodynamic at 24 h" readout_qualifier== reading=13
chemical_string=Cc1cc(COc2cnc(N3CCN(S(=O)(=O)C[C@@]4(C)NC(=O)NC4=O)CC3)nc2)n(C)n1 reported_property="solubility thermodynamic at 24 h" readout_qualifier== reading=32
chemical_string=C[C@]1(CS(=O)(=O)N2CCN(c3ncc(OCc4ccc(F)cc4)cn3)CC2)NC(=O)NC1=O reported_property="solubility thermodynamic at 24 h" readout_qualifier== reading=16
chemical_string=C[C@]1(CS(=O)(=O)N2CCC(Oc3ccc(OCc4ncccn4)cc3)CC2)NC(=O)NC1=O reported_property="solubility thermodynamic at 24 h" readout_qualifier== reading=560
chemical_string=CCOc1ccc(OC2CCN(S(=O)(=O)C[C@@]3(C)NC(=O)NC3=O)CC2)cc1 reported_property="solubility thermodynamic at 24 h" readout_qualifier== reading=15
chemical_string=C[C@]1(CS(=O)(=O)N2CCC(Oc3ccc(OC(F)(F)C(F)F)cc3)CC2)NC(=O)NC1=O reported_property="solubility thermodynamic at 24 h" readout_qualifier== reading=6.8
chemical_string=C[C@]1(CS(=O)(=O)N2CCC(Oc3ccc(Cl)cc3)CC2)NC(=O)NC1=O reported_property="solubility thermodynamic at 24 h" readout_qualifier== reading=12
chemical_string=C[C@]1(CS(=O)(=O)N2CCC(Oc3ccc(OC(F)(F)C(F)(F)F)cc3)CC2)NC(=O)NC1=O reported_property="solubility thermodynamic at 24 h" readout_qualifier=< reading=2
chemical_string=C[C@]1(CS(=O)(=O)N2CCC(Oc3ccc(F)cc3)CC2)NC(=O)NC1=O reported_property="solubility thermodynamic at 24 h" readout_qualifier== reading=52

====

- assay-overview: Solubility of compound in fasted state simulated intestinal fluid
- Format: physicochemical
Entries and their measured solubility follow.
reported-property: solubility (µM)

chemical_string=C[C@]1(CS(=O)(=O)N2CCN(c3ncc(OCc4ccc(C(F)(F)F)o4)cn3)CC2)NC(=O)NC1=O reading=26.5
chemical_string=C[C@]1(CS(=O)(=O)N2CCC(Oc3ccc(OC(F)(F)C(F)F)cc3)CC2)NC(=O)NC1=O reading=14.9

====

- assay-overview: Half life in rat
- Format: ADME, organism-based
- protocol-conditions: in vivo
reported-property: half-life (h)

chemical_string=C[C@]1(CS(=O)(=O)N2CCN(c3ncc(OCc4cnc(C#N)s4)cn3)CC2)NC(=O)NC1=O reported_property=half-life unit_tag=h reading=0.23
chemical_string=C[C@]1(CS(=O)(=O)N2CCN(c3ncc(OCc4ccc(C(F)(F)F)o4)cn3)CC2)NC(=O)NC1=O reported_property=half-life unit_tag=h reading=2.6
chemical_string=C[C@]1(CS(=O)(=O)N2CCN(c3ncc(OCc4ccc(F)cc4)cn3)CC2)NC(=O)NC1=O reported_property=half-life unit_tag=h reading=1.9
chemical_string=C[C@]1(CS(=O)(=O)N2CCN(c3ncc(OCc4cccc(C#N)c4)cn3)CC2)NC(=O)NC1=O reported_property=half-life unit_tag=h reading=7.5
chemical_string=C[C@]1(CS(=O)(=O)N2CCN(c3ncc(OCc4cc(C(F)(F)F)no4)cn3)CC2)NC(=O)NC1=O reported_property=half-life unit_tag=h reading=3.3
chemical_string=Cc1cc(COc2cnc(N3CCN(S(=O)(=O)C[C@@]4(C)NC(=O)NC4=O)CC3)nc2)on1 reported_property=half-life unit_tag=h reading=0.67

====

- assay-overview: Fraction unbound in dog plasma
- Assay type: ADME, cell-free, Canis lupus familiaris
Entries and their measured fraction unbound follow.
reported-property: fraction unbound

chemical_string=C[C@]1(CS(=O)(=O)N2CCN(c3ncc(OCc4ccc(C(F)(F)F)o4)cn3)CC2)NC(=O)NC1=O reading=0.08
chemical_string=C[C@]1(CS(=O)(=O)N2CCC(Oc3ccc(OC(F)(F)C(F)F)cc3)CC2)NC(=O)NC1=O reading=0.05

====

Entries and their measured half-life follow.
- assay-overview: Half life in dog at 0.5 mg/kg, iv and 1 mg/kg, po
- Assay type: ADME, organism-based, Canis lupus familiaris
- protocol-conditions: in vivo
reported-property: half-life (h)

chemical_string=C[C@]1(CS(=O)(=O)N2CCC(Oc3ccc(OC(F)(F)C(F)F)cc3)CC2)NC(=O)NC1=O unit_tag=h reading=35
chemical_string=C[C@]1(CS(=O)(=O)N2CCN(c3ncc(OCc4ccc(C(F)(F)F)o4)cn3)CC2)NC(=O)NC1=O unit_tag=h reading=10.6
chemical_string=C[C@]1(CS(=O)(=O)N2CCC(Oc3ccc(OCc4ccccn4)cc3)CC2)NC(=O)NC1=O unit_tag=h reading=2.3

====

Entries and their measured Papp A→B at 10 µM follow.
- assay-overview: in vitro
- protocol-conditions: human, Caco-2
reported-property: Papp A→B at 10 µM (×10⁻⁶ cm/s)

chemical_string=C[C@]1(CS(=O)(=O)N2CCN(c3ncc(OCc4ccc(C(F)(F)F)o4)cn3)CC2)NC(=O)NC1=O unit_tag="×10⁻⁶ cm/s" reading=9
chemical_string=C[C@]1(CS(=O)(=O)N2CCC(Oc3ccc(OC(F)(F)C(F)F)cc3)CC2)NC(=O)NC1=O unit_tag="×10⁻⁶ cm/s" reading=21

====

UniProt:P11712 measurements of pIC50, listed per entry.
Sequence (P11712 whole entry): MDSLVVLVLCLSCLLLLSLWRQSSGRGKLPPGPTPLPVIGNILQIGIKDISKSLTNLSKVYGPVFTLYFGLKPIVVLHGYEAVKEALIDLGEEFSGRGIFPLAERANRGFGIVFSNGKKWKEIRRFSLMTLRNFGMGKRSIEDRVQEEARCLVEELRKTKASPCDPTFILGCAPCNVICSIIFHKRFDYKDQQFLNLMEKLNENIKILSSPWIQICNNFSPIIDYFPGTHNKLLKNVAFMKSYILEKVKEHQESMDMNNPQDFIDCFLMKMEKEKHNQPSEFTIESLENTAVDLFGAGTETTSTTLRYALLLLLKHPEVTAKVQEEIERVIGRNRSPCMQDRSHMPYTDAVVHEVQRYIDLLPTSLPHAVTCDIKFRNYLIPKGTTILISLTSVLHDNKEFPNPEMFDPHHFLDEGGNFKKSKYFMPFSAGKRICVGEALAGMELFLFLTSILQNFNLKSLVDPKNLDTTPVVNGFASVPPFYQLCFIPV
pIC50: −log10 of the molar value.
reported-property: pIC50

chemical_string=C[C@]1(CS(=O)(=O)N2CCC(Oc3ccc(OC(F)(F)C(F)F)cc3)CC2)NC(=O)NC1=O reported_property=pIC50 reading="< 5.00"
chemical_string=C[C@]1(CS(=O)(=O)N2CCC(Oc3ccc(C(F)(F)F)cc3)CC2)NC(=O)NC1=O reported_property=pIC50 reading="< 4.40"
